compounds and their reported Boiling temperature at pressure P
- Test Method Notes: Boiling temperature at pressure P
- Condition Description: 101 kPa; Liquid; Ebulliometric method (Recirculating still)

| Compound | Unit Descriptor | Boiling temperature at pressure P |
| --- | --- | --- |
| CCCC(C)O (centres undefined) | °C | 119.1 |
| CCCCCO | °C | 137.8 |
| CC(C)CCO | °C | 131.1 |
| CCCOC(C)=O [propyl ethanoate] | °C | 101.5 |

----------
- Condition Description: 298.15 K; 101.33 kPa; Liquid; Pycnometric method

| Molecule | mass density (kg/m3) |
| --- | --- |
| CC(C)CCO | 811.04 |
| CCCC(C)O (centres undefined) | 806.57 |
| CCCOC(C)=O [propyl ethanoate] | 882.8 |
| CCCCCO | 810.12 |

----------
Consider the following molecules and their measured refractive index readings.
- Test Method Notes: refractive index (Na D-line) (dimensionless)
- Condition Description: 298.15 K; 101.33 kPa; Liquid; Standard Abbe refractometry
Numbers after ± are expanded uncertainties.

| Molecule | refractive index |
| --- | --- |
| CCCCCO [pentan-1-ol] | 1.4078 ± 0.0005 |
| CC(C)CCO [3-methylbutan-1-ol] | 1.4155 ± 0.0005 |
| CCCOC(C)=O [propyl ethanoate] | 1.3821 ± 0.0005 |
| CCCC(C)O (centres undefined) [pentan-2-ol] | 1.4048 ± 0.0005 |
